biological target: JAK3 (Homo sapiens, UniProt P52333); construct: The Ramos B-cell line was acquired from ATCC (ATCC Catalog No. CRL-1596); test: Assay for CD23 expression on Ramos B-cells stimulated by IL-4 (Table IV: ability to inhibit JAK3 activity); settings: tested under conditions described in Example 3 (so in the source)
Where a name gives a salt, the structure may show the parent alone.
READOUT NAME: IC50

In [3]: df
Out[3]:
                                   molecule                   measurement_target  readout_name  experimental_value
0  Cc1ccc(Nc2ncc(Cl)c(Nc3ccc4oc(=O)[nH]c4c3)n2)cc1C [Compound I-5, trifluoroacetate salt]  JAK3 (Homo sapiens, UniProt P52333)          IC50            < 0.5 µM
1  COc1c(F)ccc(Nc2ncc(F)c(Nc3cc(F)c4oc(=O)[nH]c4c3)n2)c1F [Compound I-193, trifluoroacetate salt]  JAK3 (Homo sapiens, UniProt P52333)          IC50         0.5 to 5 µM
2  Cc1cnc(Nc2cc(C)c(C)c(C(=O)O)c2)nc1Nc1ccc2oc(=O)[nH]c2c1  JAK3 (Homo sapiens, UniProt P52333)          IC50         0.5 to 5 µM
3  Cc1cnc(Nc2cc(C)c(C)c(CO)c2)nc1Nc1ccc2oc(=O)[nH]c2c1  JAK3 (Homo sapiens, UniProt P52333)          IC50            < 0.5 µM
4  Cc1cc(Nc2ncc(F)c(Nc3cc(F)c4oc(=O)[nH]c4c3)n2)cc(C)c1F [Compound I-189, trifluoroacetate salt]  JAK3 (Homo sapiens, UniProt P52333)          IC50            < 0.5 µM
5  CCc1ccc(Nc2ncc(Cl)c(Nc3ccc4oc(=O)[nH]c4c3)n2)c(F)c1OC [Compound I-71, trifluoroacetate salt]  JAK3 (Homo sapiens, UniProt P52333)          IC50            < 0.5 µM

As a next step, examine the molecule that follows.
Ask: Fill blank: measured IC50 of the molecule COc1ccc(Nc2ncc(F)c(Nc3ccc4oc(=O)[nH]c4c3)n2)cc1C(F)F [Compound I-197, formate salt] is ____.
Reply: < 0.5 µM

* * *

Molecular target: JAK3 (Homo sapiens, UniProt P52333)
Construct: The Ramos B-cell line was acquired from ATCC (ATCC Catalog No. CRL-1596)
Sequence (P52333 1-1124): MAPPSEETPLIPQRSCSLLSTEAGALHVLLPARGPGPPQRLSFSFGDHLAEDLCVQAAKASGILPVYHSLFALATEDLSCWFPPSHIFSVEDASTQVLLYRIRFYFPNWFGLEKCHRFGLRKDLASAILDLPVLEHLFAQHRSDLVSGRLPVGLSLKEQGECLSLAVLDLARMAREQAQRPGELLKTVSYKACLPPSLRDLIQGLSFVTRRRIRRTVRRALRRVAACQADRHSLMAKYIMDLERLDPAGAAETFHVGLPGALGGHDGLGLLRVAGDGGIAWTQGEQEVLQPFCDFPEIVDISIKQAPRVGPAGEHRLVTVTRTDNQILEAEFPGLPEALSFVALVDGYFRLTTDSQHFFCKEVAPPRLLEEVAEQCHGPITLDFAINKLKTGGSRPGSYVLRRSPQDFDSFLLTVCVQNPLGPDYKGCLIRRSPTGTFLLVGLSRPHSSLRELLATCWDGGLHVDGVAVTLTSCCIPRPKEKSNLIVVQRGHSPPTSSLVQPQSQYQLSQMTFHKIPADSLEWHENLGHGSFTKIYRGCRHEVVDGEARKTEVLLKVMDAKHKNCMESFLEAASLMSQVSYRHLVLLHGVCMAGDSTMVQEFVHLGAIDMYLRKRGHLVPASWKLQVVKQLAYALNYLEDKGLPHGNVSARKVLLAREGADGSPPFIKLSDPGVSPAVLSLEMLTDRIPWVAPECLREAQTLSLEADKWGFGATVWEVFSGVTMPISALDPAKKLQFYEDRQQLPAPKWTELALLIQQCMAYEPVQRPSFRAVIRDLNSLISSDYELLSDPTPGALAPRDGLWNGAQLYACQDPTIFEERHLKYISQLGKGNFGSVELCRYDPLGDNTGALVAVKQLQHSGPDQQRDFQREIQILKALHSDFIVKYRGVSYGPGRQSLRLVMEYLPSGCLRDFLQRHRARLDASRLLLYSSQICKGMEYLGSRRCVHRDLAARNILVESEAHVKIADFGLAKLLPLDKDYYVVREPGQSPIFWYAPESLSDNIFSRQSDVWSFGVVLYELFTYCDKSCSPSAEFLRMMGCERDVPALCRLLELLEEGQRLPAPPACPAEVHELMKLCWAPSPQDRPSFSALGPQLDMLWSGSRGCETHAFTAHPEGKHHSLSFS
Test: Assay for CD23 expression on Ramos B-cells stimulated by IL-4 (Table IV: ability to inhibit JAK3 activity)
Details: tested under conditions described in Example 3 (so in the source)
Structures can show the parent of a compound that is named as a salt.
READOUT NAME: IC50

Below, 6 molecules whose answers are already recorded.
                                   molecule  experimental_value
0  COc1cc(Nc2ncc(F)c(Nc3cc(C)c4oc(=O)[nH]c4c3)n2)cc(C(F)(F)F)c1 [Compound I-176, trifluoroacetate salt]          > 10000 nM
1  Cc1cnc(Nc2ncc(C)c(Nc3ccc4oc(=O)[nH]c4c3)n2)cc1C          > 10000 nM
2  Cc1cc(Nc2ncc(F)c(Nc3ccc4oc(=O)[nH]c4c3)n2)cc(C)c1C#N            < 500 nM
3  COc1cc(Nc2ncc(F)c(Nc3ccc4oc(=O)[nH]c4c3)n2)cc(C)c1OC [Compound I-182, trifluoroacetate salt]            < 500 nM
4  O=c1[nH]c2cc(Nc3nc(Nc4cc(F)cc(F)c4)ncc3Cl)ccc2o1 [Compound I-14, trifluoroacetate salt]            < 500 nM
5  Cc1cnc(Nc2cc(C)c(Br)c(C)c2)nc1Nc1ccc2oc(=O)[nH]c2c1            < 500 nM

Ask: Form field: IC50 recorded for "Cc1cc(C)nc(Nc2ncc(C)c(Nc3ccc4oc(=O)[nH]c4c3)n2)c1" with JAK3 (Homo sapiens, UniProt P52333) (enter value)
Reply: 500 to 5000 nM

Ask: Look up IC50 with JAK3 (Homo sapiens, UniProt P52333) for this molecule: Cc1cc(Nc2ncc(Br)c(Nc3ccc4oc(=O)[nH]c4c3)n2)cc(C)c1C [Compound I-16, formate salt]
Reply: < 500 nM

Ask: Form: Entry = "COCc1c(C)cc(Nc2ncc(C)c(Nc3ccc4oc(=O)[nH]c4c3)n2)cc1C" | System = JAK3 (Homo sapiens, UniProt P52333) | IC50 = ____
Reply: < 500 nM

Ask: Query for JAK3 (Homo sapiens, UniProt P52333): what IC50 does the record show for COC(=O)c1cnc(Nc2ccc(C(N)=O)cc2)nc1Nc1ccc2oc(=O)[nH]c2c1 [Compound I-54, trifluoroacetate salt] ?
Reply: > 10000 nM

Ask: Notebook: pull reported IC50 for JAK3 (Homo sapiens, UniProt P52333), entry "COc1ccc(Nc2ncc(F)c(Nc3ccc4oc(=O)[nH]c4c3)n2)cc1C(F)(F)F"
Reply: < 500 nM

Ask: Give JAK3 (Homo sapiens, UniProt P52333) IC50 for Cc1ccc(Nc2ncc([N+](=O)[O-])c(Nc3ccc4oc(=O)[nH]c4c3)n2)cc1N(C)C [Compound I-45, trifluoroacetate salt]
Reply: > 10000 nM

Ask: Give IC50 (JAK3 (Homo sapiens, UniProt P52333)) of the following molecule: O=c1[nH]c2cc(Nc3nc(Nc4ccccc4)ncc3Cl)ccc2o1 [Compound I-4, trifluoroacetate salt]
Reply: < 500 nM

Ask: Recall the recorded IC50 for "Cc1cnc(Nc2cc(C)c(C)c(C)c2)nc1Nc1cc(CN2CCN(C)CC2)c2oc(=O)[nH]c2c1" with JAK3 (Homo sapiens, UniProt P52333) and state it.
Reply: 500 to 5000 nM

Ask: Request: IC50, test system JAK3 (Homo sapiens, UniProt P52333), entry COc1ccc(Nc2ncc(C)c(Nc3ccc4oc(=O)[nH]c4c3)n2)c(F)c1OC [Compound I-102]
Reply: < 500 nM
